So I've got a bunch of compounds here, and I need their EC50 values.
- TARGET OR TEST SYSTEM: Adenosine receptor A2b (Homo sapiens, UniProt P29275)
- Sequence (P29275 whole entry): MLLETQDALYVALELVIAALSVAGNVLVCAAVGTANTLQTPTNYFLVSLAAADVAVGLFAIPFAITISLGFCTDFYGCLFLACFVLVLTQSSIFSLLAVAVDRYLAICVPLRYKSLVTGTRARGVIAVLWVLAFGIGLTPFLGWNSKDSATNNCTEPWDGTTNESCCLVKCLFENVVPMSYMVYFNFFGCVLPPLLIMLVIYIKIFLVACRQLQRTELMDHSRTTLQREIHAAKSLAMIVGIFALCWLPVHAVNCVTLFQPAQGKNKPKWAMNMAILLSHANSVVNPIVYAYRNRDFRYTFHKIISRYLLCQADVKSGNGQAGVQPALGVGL
- EXPERIMENTAL DETAILS: Irreversible agonist activity at human adenosine A2B receptor expressed in Flp-In-CHO cells assessed as effect on forskolin-induced cAMP accumulation incubated for 30 mins by LANCE cAMP detection assay
State the value, then name its unit.

Query: Given the entry O=C(NCc1ccc(Nc2ncnc3c2ncn3[C@@H]2O[C@H](CO)[C@@H](O)[C@H]2O)cc1)c1ccc(S(=O)(=O)F)cc1 , what EC50 was observed with Adenosine receptor A2b (Homo sapiens, UniProt P29275)?
Reply: 117 nM

Query: Ok, now OC[C@H]1O[C@@H](n2cnc3c(Nc4ccc(CN=C=S)cc4)ncnc32)[C@H](O)[C@@H]1O
Reply: 708 nM

Query: Ok, now OC[C@H]1O[C@@H](n2cnc3c(Nc4ccc(CNC(=S)Nc5ccc(N=C=S)cc5)cc4)ncnc32)[C@H](O)[C@@H]1O
Reply: 224 nM

###

- TARGET OR TEST SYSTEM: Adenosine receptor A3 (Homo sapiens)
- Sequence (P0DMS8 whole entry): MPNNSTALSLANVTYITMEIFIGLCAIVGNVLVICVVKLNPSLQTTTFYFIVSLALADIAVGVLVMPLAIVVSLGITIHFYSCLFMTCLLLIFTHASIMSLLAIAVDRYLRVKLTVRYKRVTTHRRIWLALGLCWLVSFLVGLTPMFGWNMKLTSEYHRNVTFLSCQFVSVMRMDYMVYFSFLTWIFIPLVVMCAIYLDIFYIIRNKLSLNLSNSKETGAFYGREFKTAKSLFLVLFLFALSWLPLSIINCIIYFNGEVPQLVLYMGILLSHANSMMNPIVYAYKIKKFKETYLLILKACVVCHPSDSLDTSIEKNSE
- EXPERIMENTAL DETAILS: Irreversible agonist activity at human adenosine A3 receptor expressed in Flp-In-CHO cells assessed as effect on forskolin-induced cAMP accumulation incubated for 30 mins by LANCE cAMP detection assay
So I've got a bunch of compounds here, and I need their EC50 values.
Entry rule: numbers only, all in µM.

Query: Given the entry OC[C@H]1O[C@@H](n2cnc3c(Nc4ccc(CN=C=S)cc4)ncnc32)[C@H](O)[C@@H]1O , what EC50 was observed with Adenosine receptor A3 (Homo sapiens)?
Reply: 0.347

Query: Ok, now OC[C@H]1O[C@@H](n2cnc3c(Nc4ccc(CNC(=S)Nc5ccc(N=C=S)cc5)cc4)ncnc32)[C@H](O)[C@@H]1O
Reply: 0.0447

Query: Ok, now O=C(NCc1ccc(Nc2ncnc3c2ncn3[C@@H]2O[C@H](CO)[C@@H](O)[C@H]2O)cc1)c1ccc(S(=O)(=O)F)cc1
Reply: 0.135

###

- TARGET OR TEST SYSTEM: Adenosine receptor A1 (Homo sapiens)
- EXPERIMENTAL DETAILS: Irreversible agonist activity at human adenosine A1 receptor expressed in Flp-In-CHO cells assessed as induction of positive change of cellular impedance at 1 uM incubated for 2 hrs by xCELLigence real-time cell analysis
- Format: cell-based
- EXPERIMENTAL SETUP: filed as agonist
Activity calls are given as the source filed them. The calls are words filed in the database; no cut-off is given here.
ENDPOINT LABEL: Activity

For orientation, consider the following solved cases.
CCNC(=O)[C@H]1O[C@@H](n2cnc3c(N)ncnc32)[C@H](O)[C@@H]1O : Active
OC[C@H]1O[C@@H](n2cnc3c(NCCCCCCCCCCN=C=S)ncnc32)[C@H](O)[C@@H]1O : Active
O=C(NCc1ccc(Nc2ncnc3c2ncn3[C@@H]2O[C@H](CO)[C@@H](O)[C@H]2O)cc1)c1ccc(S(=O)(=O)F)cc1 : Active
OC[C@H]1O[C@@H](n2cnc3c(Nc4ccc(CNC(=S)Nc5ccc(N=C=S)cc5)cc4)ncnc32)[C@H](O)[C@@H]1O : Active
OC[C@H]1O[C@@H](n2cnc3c(Nc4ccc(CN=C=S)cc4)ncnc32)[C@H](O)[C@@H]1O : Active

Now look at this one.
Query: Given the entry O=C(NCc1ccc(Nc2ncnc3c2ncn3[C@@H]2O[C@H](CO)[C@@H](O)[C@H]2O)cc1)C1=CC2C=CC1CC2 (stereo partly specified) , what Activity was observed with Adenosine receptor A1 (Homo sapiens)?
Reply: Active

###

So I've got a bunch of molecules here, and I need their Tm values.
- TARGET OR TEST SYSTEM: Adenosine receptor A1 (Homo sapiens) (UniProt P30542)
- Sequence (whole entry): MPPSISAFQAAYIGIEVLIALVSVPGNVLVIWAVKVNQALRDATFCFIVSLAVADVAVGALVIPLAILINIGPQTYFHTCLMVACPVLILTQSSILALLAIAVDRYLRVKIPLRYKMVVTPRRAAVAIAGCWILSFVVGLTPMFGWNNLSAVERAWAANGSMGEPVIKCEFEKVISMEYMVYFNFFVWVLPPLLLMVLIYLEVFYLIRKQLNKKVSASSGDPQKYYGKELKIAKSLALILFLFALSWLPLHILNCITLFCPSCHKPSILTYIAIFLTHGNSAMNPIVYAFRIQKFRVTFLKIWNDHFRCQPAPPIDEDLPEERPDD
- EXPERIMENTAL DETAILS: Binding affinity to human adenosine A1 receptor expressed in Sf9 cells assessed protein melting temperature at 10 uM incubated for 30 mins by Thermo-fluor assay
- Assay type: cell membranes
- EXPERIMENTAL SETUP: Cell membrane, filed as agonist
Entry rule: numbers only, all in °C.

Query: Which Tm is reported for this molecule? OC[C@H]1O[C@@H](n2cnc3c(Nc4ccc(CN=C=S)cc4)ncnc32)[C@H](O)[C@@H]1O
Reply: 42.7

Query: Ok, now CCNC(=O)[C@H]1O[C@@H](n2cnc3c(N)ncnc32)[C@H](O)[C@@H]1O
Reply: 38.7

Query: Ok, now O=C(NCc1ccc(Nc2ncnc3c2ncn3[C@@H]2O[C@H](CO)[C@@H](O)[C@H]2O)cc1)c1ccc(S(=O)(=O)F)cc1
Reply: 46.7

Query: Ok, now OC[C@H]1O[C@@H](n2cnc3c(Nc4ccc(CNC(=S)Nc5ccc(N=C=S)cc5)cc4)ncnc32)[C@H](O)[C@@H]1O
Reply: 46.6

###

- TARGET OR TEST SYSTEM: Adenosine receptor A1 (Homo sapiens, UniProt P30542)
- EXPERIMENTAL DETAILS: Irreversible agonist activity at human adenosine A1 receptor expressed in Flp-In-CHO cells assessed as stimulation of ERK1/2 phosphorylation incubated for 5 mins
- Type: cell-based
ENDPOINT LABEL: EC50 (µM)
Entry rule: numbers only, all in µM.

Query: Which EC50 is reported for this compound? OC[C@H]1O[C@@H](n2cnc3c(Nc4ccc(CNC(=S)Nc5ccc(N=C=S)cc5)cc4)ncnc32)[C@H](O)[C@@H]1O
Reply: 0.00158

Query: Ok, now OC[C@H]1O[C@@H](n2cnc3c(Nc4ccc(CN=C=S)cc4)ncnc32)[C@H](O)[C@@H]1O
Reply: 0.02

Query: Ok, now OC[C@H]1O[C@@H](n2cnc3c(NCCCCCCCCCCN=C=S)ncnc32)[C@H](O)[C@@H]1O
Reply: 0.0794

Query: Ok, now O=C(NCc1ccc(Nc2ncnc3c2ncn3[C@@H]2O[C@H](CO)[C@@H](O)[C@H]2O)cc1)c1ccc(S(=O)(=O)F)cc1
Reply: 0.001

Query: Ok, now OC[C@H]1O[C@@H](n2cnc3c(NCCN=C=S)ncnc32)[C@H](O)[C@@H]1O
Reply: 0.158

Query: Ok, now O=C(NCc1ccc(Nc2ncnc3c2ncn3[C@@H]2O[C@H](CO)[C@@H](O)[C@H]2O)cc1)C1=CC2C=CC1CC2 (some centres undefined)
Reply: 0.00158

Query: Ok, now O=C(NCCCCCCNc1ncnc2c1ncn2[C@@H]1O[C@H](CO)[C@@H](O)[C@H]1O)C1=CC2C=CC1CC2 (some centres undefined)
Reply: 0.0158

Query: Ok, now OC[C@H]1O[C@@H](n2cnc3c(NCCNC(=S)Nc4ccc(N=C=S)cc4)ncnc32)[C@H](O)[C@@H]1O
Reply: 0.00316

Query: Ok, now O=C(NCCCCCCCCCCNc1ncnc2c1ncn2[C@@H]1O[C@H](CO)[C@@H](O)[C@H]1O)C1=CC2C=CC1CC2 (some centres undefined)
Reply: 0.0251

###

- TARGET OR TEST SYSTEM: Adenosine receptor A1 (Homo sapiens)
- Sequence (whole entry): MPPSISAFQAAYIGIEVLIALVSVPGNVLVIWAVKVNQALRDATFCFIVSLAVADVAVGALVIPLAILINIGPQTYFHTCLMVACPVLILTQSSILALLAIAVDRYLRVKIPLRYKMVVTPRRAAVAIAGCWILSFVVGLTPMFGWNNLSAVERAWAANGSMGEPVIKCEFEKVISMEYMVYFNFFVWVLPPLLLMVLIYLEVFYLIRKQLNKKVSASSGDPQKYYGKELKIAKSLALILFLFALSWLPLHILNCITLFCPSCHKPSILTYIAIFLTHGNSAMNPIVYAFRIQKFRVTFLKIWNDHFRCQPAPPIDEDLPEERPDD
- EXPERIMENTAL DETAILS: Binding affinity to human adenosine A1 receptor expressed in NECA-pre-treated Flp-In-CHO cell membranes assessed as [35S]GTP-gamma-S incorporation level at 10 uM incubated for 40 mins followed by washing by liquid scintillation counting
- EXPERIMENTAL SETUP: Cell membrane, filed as agonist
The source made the active and inactive calls. The rule behind the calls is not given here.
ENDPOINT LABEL: Activity

OC[C@H]1O[C@@H](n2cnc3c(Nc4ccc(CNC(=S)Nc5ccc(N=C=S)cc5)cc4)ncnc32)[C@H](O)[C@@H]1O : Active
O=C(NCc1ccc(Nc2ncnc3c2ncn3[C@@H]2O[C@H](CO)[C@@H](O)[C@H]2O)cc1)c1ccc(S(=O)(=O)F)cc1 : Active
CCCn1c(=O)c2nc(C3CCCC3)[nH]c2n(CCCOC(=O)c2ccc(S(=O)(=O)F)cc2)c1=O : 32%
O[C@H]1CC[C@H](Nc2nc(-c3ccccc3)nc3[nH]ccc23)CC1 : 37%

Where do these numbers come from? They come from ChEMBL document CHEMBL4715802.
